- Tested on: redroot pigweed (Amaranthus retroflexus, AMARE)
- Assay details: Post-emerge test, greenhouse herbicide activity screening
- Format: in vivo
- Setup conditions: Rate 63 g ai/ha; rating scale 0-100 (0 no damage, 100 complete death); 14 days after application
The following compounds are shown together with reported Post-emerge Herbicidal Activity, phytotoxicity rating AMARE values.
Measured endpoint: Post-emerge Herbicidal Activity, phytotoxicity rating AMARE

INSERT INTO assay_data (compound, numeric_value) VALUES
  ('COc1c(Cl)cc(F)c(-n2c(=O)cc(C(F)(F)F)n(C)c2=O)c1CC(C)(Cl)C(=O)OCc1ccccc1 (centres unmarked) [14-41]', 100),
  ('COc1c(Cl)cc(F)c(-n2c(=O)cc(C(F)(F)F)n(C)c2=O)c1CC(Cl)C(=O)OCCC#N (centres unmarked) [14-29]', 90),
  ('CCOC(=O)C(Cl)(CC(=O)OC)Cc1c(OC)c(Cl)cc(F)c1-n1c(=O)cc(C(F)(F)F)n(C)c1=O (centres unmarked) [14-50]', 100),
  ('COc1c(Cl)cc(F)c(-n2c(=O)cc(C(F)(F)F)n(C)c2=O)c1CC(Cl)C(=O)OCC(F)(F)C(F)F (centres unmarked) [14-22]', 50),
  ('CCCOC(=O)C(Cl)Cc1c(OC)c(Cl)cc(F)c1-n1c(=O)cc(C(F)(F)F)n(C)c1=O (single isomer, unassigned) [14-7]', 95),
  ('COc1c(Cl)cc(F)c(-n2c(=O)cc(C(F)(F)F)n(C)c2=O)c1CC(Cl)C(=O)OCC(F)(F)C(F)(F)C(F)(F)F (single isomer, unassigned) [14-24]', 40),
  ('C#CCOC(=O)C(C)(Cl)Cc1c(OC)c(Cl)cc(F)c1-n1c(=O)cc(C(F)(F)F)n(C)c1=O (centres unmarked) [14-44]', 100),
  ('COc1c(Cl)cc(F)c(-n2c(=O)cc(C(F)(F)F)n(C)c2=O)c1CC(Cl)C(=O)OCC(Br)CBr (single isomer, unassigned) [14-31]', 90);
